- STUDY SYSTEM: T1, serum purified human Complement Factor D (human, UniProt P00746 26-253)
- T1 construct: Serum purified protein flowed over the captured antibodies; also called CFD; human CFD
- T1 sequence (P00746 26-253): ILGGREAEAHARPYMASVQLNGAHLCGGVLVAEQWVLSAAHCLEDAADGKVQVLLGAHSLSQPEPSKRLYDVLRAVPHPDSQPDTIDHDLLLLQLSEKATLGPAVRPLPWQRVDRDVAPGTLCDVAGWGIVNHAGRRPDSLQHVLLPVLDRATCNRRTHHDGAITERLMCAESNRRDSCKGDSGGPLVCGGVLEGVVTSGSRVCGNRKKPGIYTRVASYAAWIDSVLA
- METHOD DESCRIPTION: SPR Biacore, antibody on protein A chip, single cycle kinetics, 25 C;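 further: antibodies captured to roughly 70 RU on the protein A surface in HBS-EP+ running buffer, with kinetic constants derived by BIAevaluation fitting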
READOUT KIND: kon (M⁻¹ s⁻¹)
Numeric answer only, unit M⁻¹ s⁻¹ assumed.

Reference set, count: 4
BINDER: 54V59D / 32D50I101V (antibody, V domains shown, KCD119 TAF variant; full antibody captured on protein A) VH: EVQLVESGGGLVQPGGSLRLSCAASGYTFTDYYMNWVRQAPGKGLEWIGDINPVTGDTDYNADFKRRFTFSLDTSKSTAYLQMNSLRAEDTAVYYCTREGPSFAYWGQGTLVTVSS VL: DIQLTQSPSSLSASVGDRVTITCRSSQTIVHDNGDTYLEWYQQKPGKAPILLIYKVSNRFSGVPSRFSGSGSGTDFTLTISSLQPEDFATYYCFQGSHVPVTFGQGTKVEIK
kon [M⁻¹ s⁻¹]: 8.11e+06

BINDER: 54I59D / 54S60W101V (antibody, V domains shown, Light label printed 54560W101V, read as 54S60W101V; also called 54I59D / 54560W101V) VH: EVQLVESGGGLVQPGGSLRLSCAASGYTFTDYYMNWVRQAPGKGLEWIGDINPITGDTDYNADFKRRFTFSLDTSKSTAYLQMNSLRAEDTAVYYCTREGPSFAYWGQGTLVTVSS VL: DIQLTQSPSSLSASVGDRVTITCRSSQTIVHSNGDTYLEWYQQKPGKAPNLLISKVSNRWSGVPSRFSGSGSGTDFTLTISSLQPEDFATYYCFQGSHVPVTFGQGTKVEIK
kon [M⁻¹ s⁻¹]: 7.19e+06

BINDER: 31S34I54I59D84S / 54R101V (antibody, V domains shown, KCD119 TAF variant; also called 3I534I54I59D84S / 54R101V) VH: EVQLVESGGGLVQPGGSLRLSCAASGYTFTSYYINWVRQAPGKGLEWIGDINPITGDTDYNADFKRRFTFSLDTSKSTAYLQMSSLRAEDTAVYYCTREGPSFAYWGQGTLVTVSS VL: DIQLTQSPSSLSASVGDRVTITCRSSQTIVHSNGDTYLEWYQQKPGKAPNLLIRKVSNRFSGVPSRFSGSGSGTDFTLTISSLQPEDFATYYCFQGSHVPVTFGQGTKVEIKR
kon [M⁻¹ s⁻¹]: 1.66e+07

BINDER: 31S34I54I59D84S / 54G101V (antibody, V domains shown, KCD119 TAF variant; full antibody captured on protein A; also called 31S34I54I59D845 / 54G101V; 3I534I54I59D84S / 54G101V) VH: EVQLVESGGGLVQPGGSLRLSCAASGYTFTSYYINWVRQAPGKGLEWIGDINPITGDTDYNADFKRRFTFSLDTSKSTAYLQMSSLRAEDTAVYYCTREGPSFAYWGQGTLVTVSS VL: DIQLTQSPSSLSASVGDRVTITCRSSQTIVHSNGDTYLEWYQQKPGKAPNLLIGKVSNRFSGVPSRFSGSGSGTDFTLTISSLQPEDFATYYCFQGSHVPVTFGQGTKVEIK
kon [M⁻¹ s⁻¹]: 4.42e+06

Ask | Request the reported kon associated with 54V59D / 32W60W101V (antibody, V domains shown, KCD119 TAF variant; full antibody captured on protein A) VH: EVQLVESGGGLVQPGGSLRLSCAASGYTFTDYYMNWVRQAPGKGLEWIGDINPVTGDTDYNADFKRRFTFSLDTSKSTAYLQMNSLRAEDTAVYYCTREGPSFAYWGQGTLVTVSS VL: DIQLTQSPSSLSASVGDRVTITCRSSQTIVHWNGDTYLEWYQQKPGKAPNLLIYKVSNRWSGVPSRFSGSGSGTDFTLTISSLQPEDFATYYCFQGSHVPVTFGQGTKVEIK
Reply | 7.88e+06
